The measured values listed here are drawn from PubChem BioAssay AID1963853.

- System: 266295-075-R-J1-PDC spheroid viability
- run description: Anticancer human tumor 266295-075-R-J1-PDC patient-derived head and neck squamous carcinoma cell line growth inhibition [POLQ]
- conditions: second compound 10 µM; first compound 3.16 µM; hits give low values; spheroids with HUVEC and MSC
measure name: viability, T/C (%)

CC1COCCN1c1cc(C2(O)CC3CCC(C2)O3)c2cnn(-c3ccn[nH]3)c2n1 (stereo not given) + Nc1ccc(C#CCN(C(=O)Cc2ncc(C(F)(F)F)cc2C(F)(F)F)c2ccc(F)cc2)nn1: 30.2
CCc1cc2c(N3CCc4c(cc(Cn5ccnc5)cc4-c4cn(C)nc4C(F)(F)F)C3=O)ccnc2c(OC)n1 + Nc1ccc(C#CCN(C(=O)Cc2ncc(C(F)(F)F)cc2C(F)(F)F)c2ccc(F)cc2)nn1: 133
O=C(Nc1ccc(O)c(NS(=O)(=O)c2ccc(F)cc2)c1)c1ccc(-c2ccccc2)cc1 + Cc1cccc(N(C)C(=O)C2C(O)CCN2c2nc(C)cc(C(F)(F)F)c2C#N)c1: 142
CCc1cc2c(N3CCc4c(cc(Cn5ccnc5)cc4-c4cn(C)nc4C(F)(F)F)C3=O)cc(C)nc2c(OC)n1 + COC1C(OC(N)=O)C(O)C(Oc2ccc3c(O)c(NC(=O)c4ccc(O)c(CC=C(C)C)c4)c(=O)oc3c2C)OC1(C)C: 119
O=c1[nH]cc(F)c(=O)[nH]1 + COC1C(OC(N)=O)C(O)C(Oc2ccc3c(O)c(NC(=O)c4ccc(O)c(CC=C(C)C)c4)c(=O)oc3c2C)OC1(C)C: 98.7
CNCc1ccc(-c2[nH]c3cc(F)cc4c3c2CCNC4=O)cc1 + COC1C(OC(N)=O)C(O)C(Oc2ccc3c(O)c(NC(=O)c4ccc(O)c(CC=C(C)C)c4)c(=O)oc3c2C)OC1(C)C: 113
CC1COCCN1c1cc(C2(O)CC3CCC(C2)O3)c2cnn(-c3ccn[nH]3)c2n1 (stereo not given) + COC1C(OC(N)=O)C(O)C(Oc2ccc3c(O)c(NC(=O)c4ccc(O)c(CC=C(C)C)c4)c(=O)oc3c2C)OC1(C)C: 39.3
CC1COCCN1c1cc(-c2ccnn2C)c2ccnc(-c3ccn[nH]3)c2n1 (stereo not given) + COC1C(OC(N)=O)C(O)C(Oc2ccc3c(O)c(NC(=O)c4ccc(O)c(CC=C(C)C)c4)c(=O)oc3c2C)OC1(C)C: 47.8
O=C(Nc1ccc(O)c(NS(=O)(=O)c2ccc(F)cc2)c1)c1ccc(-c2ccccc2)cc1 + Nc1ccc(C#CCN(C(=O)Cc2ncc(C(F)(F)F)cc2C(F)(F)F)c2ccc(F)cc2)nn1: 94.3
COc1cccc2c1C(=O)c1c(O)c3c(c(O)c1C2=O)CC(O)(C(=O)CO)CC3OC1CC(N)C(O)C(C)O1 (stereo not given) + Cc1cccc(N(C)C(=O)C2C(O)CCN2c2nc(C)cc(C(F)(F)F)c2C#N)c1: 9.35

###

- System: 266295-075-R-J1-PDC spheroid viability
- run description: Anticancer human tumor 266295-075-R-J1-PDC cell line growth inhibition [POLQ];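 note: spheroids exposed to compounds for seven days before readout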
- conditions: second compound 0.1 µM; first compound 10 µM; hits give low values; spheroids with HUVEC and MSC
Cut-off 70% on viability, T/C: below means 1 (yes), at or above means 0 (no).

CCc1cc2c(N3CCc4c(cc(Cn5ccnc5)cc4-c4cn(C)nc4C(F)(F)F)C3=O)ccnc2c(OC)n1 + Cc1cccc(N(C)C(=O)C2C(O)CCN2c2nc(C)cc(C(F)(F)F)c2C#N)c1: 0 (no)
COc1ccc([C@@H](O)c2cc(-c3ncnc4cc(N5CCOCC5)ccc34)c(F)cc2Cl)nn1 + COC1C(OC(N)=O)C(O)C(Oc2ccc3c(O)c(NC(=O)c4ccc(O)c(CC=C(C)C)c4)c(=O)oc3c2C)OC1(C)C: 1 (yes)
COc1ccc([C@@H](O)c2cc(-c3ncnc4cc(N5CCOCC5)ccc34)c(F)cc2Cl)nn1 + Nc1ccc(C#CCN(C(=O)Cc2ncc(C(F)(F)F)cc2C(F)(F)F)c2ccc(F)cc2)nn1: 1 (yes)
CCc1cc2c(N3CCc4c(cc(Cn5ccnc5)cc4-c4cn(C)nc4C(F)(F)F)C3=O)ccnc2c(OC)n1 + Nc1ccc(C#CCN(C(=O)Cc2ncc(C(F)(F)F)cc2C(F)(F)F)c2ccc(F)cc2)nn1: 0 (no)
COc1cc2cc(C(=O)CCC(=O)O)sc2cc1OC + COC1C(OC(N)=O)C(O)C(Oc2ccc3c(O)c(NC(=O)c4ccc(O)c(CC=C(C)C)c4)c(=O)oc3c2C)OC1(C)C: 0 (no)
C=CC(=O)N1CCN(c2nc(=O)n(-c3c(C)ccnc3C(C)C)c3nc(-c4c(O)cccc4F)c(F)cc23)C(C)C1 (stereo not drawn) + COC1C(OC(N)=O)C(O)C(Oc2ccc3c(O)c(NC(=O)c4ccc(O)c(CC=C(C)C)c4)c(=O)oc3c2C)OC1(C)C: 0 (no)

###

viability, T/C values for the compounds below.
- System: 266295-075-R-J1-PDC spheroid viability
- run description: Anticancer human tumor 266295-075-R-J1-PDC cell line growth inhibition [POLQ];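 note: spheroids exposed to compounds for seven days before readout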
- conditions: second compound 0.0316 µM; first compound 0.316 µM; hits give low values; spheroids with HUVEC and MSC
measure name: viability, T/C (%)

CNCc1ccc(-c2[nH]c3cc(F)cc4c3c2CCNC4=O)cc1 + Cc1cccc(N(C)C(=O)C2C(O)CCN2c2nc(C)cc(C(F)(F)F)c2C#N)c1: 87.5
O=C(Nc1ccc(O)c(NS(=O)(=O)c2ccc(F)cc2)c1)c1ccc(-c2ccccc2)cc1 + COC1C(OC(N)=O)C(O)C(Oc2ccc3c(O)c(NC(=O)c4ccc(O)c(CC=C(C)C)c4)c(=O)oc3c2C)OC1(C)C: 110
COc1cccc2c1C(=O)c1c(O)c3c(c(O)c1C2=O)CC(O)(C(=O)CO)CC3OC1CC(N)C(O)C(C)O1 (stereo not given) + Cc1cccc(N(C)C(=O)C2C(O)CCN2c2nc(C)cc(C(F)(F)F)c2C#N)c1: 65.8
CC1COCCN1c1cc(C2(S(C)(=N)=O)CC2)nc(-c2ccnc3[nH]ccc23)n1 (stereo not given) + Nc1ccc(C#CCN(C(=O)Cc2ncc(C(F)(F)F)cc2C(F)(F)F)c2ccc(F)cc2)nn1: 83.4
COc1cccc(OCCCN)c1-c1cc(Nc2cnc(C#N)cn2)n[nH]1 + Cc1cccc(N(C)C(=O)C2C(O)CCN2c2nc(C)cc(C(F)(F)F)c2C#N)c1: 81.7

###

- Tested on: 266295-075-R-J1-PDC spheroid viability
- run description: Anticancer human tumor 266295-075-R-J1-PDC cell line growth inhibition [POLQ];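 note: spheroids exposed to compounds for seven days before readout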
- conditions: second compound 1 µM; first compound 10 µM; hits give low values; spheroids with HUVEC and MSC
viability, T/C values for the compounds below.
measure name: viability, T/C (%)

COc1ccc([C@@H](O)c2cc(-c3ncnc4cc(N5CCOCC5)ccc34)c(F)cc2Cl)nn1 + COC1C(OC(N)=O)C(O)C(Oc2ccc3c(O)c(NC(=O)c4ccc(O)c(CC=C(C)C)c4)c(=O)oc3c2C)OC1(C)C: 39.8
Nc1ccn(C2OC(CO)C(O)C2(F)F)c(=O)n1 (stereo not given) + COC1C(OC(N)=O)C(O)C(Oc2ccc3c(O)c(NC(=O)c4ccc(O)c(CC=C(C)C)c4)c(=O)oc3c2C)OC1(C)C: 87.4
C=CC(=O)N1CCN(c2nc(=O)n(-c3c(C)ccnc3C(C)C)c3nc(-c4c(O)cccc4F)c(F)cc23)C(C)C1 (stereo not given) + Nc1ccc(C#CCN(C(=O)Cc2ncc(C(F)(F)F)cc2C(F)(F)F)c2ccc(F)cc2)nn1: 73.9
O=C(c1cc(Cc2n[nH]c(=O)c3ccccc23)ccc1F)N1CCN(C(=O)C2CC2)CC1 + COC1C(OC(N)=O)C(O)C(Oc2ccc3c(O)c(NC(=O)c4ccc(O)c(CC=C(C)C)c4)c(=O)oc3c2C)OC1(C)C: 90.9
COc1ccc([C@@H](O)c2cc(-c3ncnc4cc(N5CCOCC5)ccc34)c(F)cc2Cl)nn1 + Cc1cccc(N(C)C(=O)C2C(O)CCN2c2nc(C)cc(C(F)(F)F)c2C#N)c1: 39.1

###

- Test system: 266295-075-R-J1-PDC spheroid viability
- run description: Anticancer human tumor 266295-075-R-J1-PDC cell line growth inhibition [POLQ];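 note: spheroids exposed to compounds for seven days before readout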
- conditions: second compound 1 µM; first compound 0.316 µM; hits give low values; spheroids with HUVEC and MSC
Cut-off 80% on viability, T/C: below means True, at or above means False.

Nc1ccn(C2OC(CO)C(O)C2(F)F)c(=O)n1 (stereo unspecified) + Cc1cccc(N(C)C(=O)C2C(O)CCN2c2nc(C)cc(C(F)(F)F)c2C#N)c1: False
CCCS(=O)(=O)Nc1ccc(F)c(C(=O)c2c[nH]c3ncc(-c4ccc(Cl)cc4)cc23)c1F + Cc1cccc(N(C)C(=O)C2C(O)CCN2c2nc(C)cc(C(F)(F)F)c2C#N)c1: False
C=CC(=O)N1CCN(c2nc(=O)n(-c3c(C)ccnc3C(C)C)c3nc(-c4c(O)cccc4F)c(F)cc23)C(C)C1 (stereo unspecified) + Cc1cccc(N(C)C(=O)C2C(O)CCN2c2nc(C)cc(C(F)(F)F)c2C#N)c1: False
CC1COCCN1c1cc(C2(S(C)(=N)=O)CC2)nc(-c2ccnc3[nH]ccc23)n1 (stereo unspecified) + Nc1ccc(C#CCN(C(=O)Cc2ncc(C(F)(F)F)cc2C(F)(F)F)c2ccc(F)cc2)nn1: False
C=CCn1c(=O)c2cnc(Nc3ccc(N4CCN(C)CC4)cc3)nc2n1-c1cccc(C(C)(C)O)n1 + COC1C(OC(N)=O)C(O)C(Oc2ccc3c(O)c(NC(=O)c4ccc(O)c(CC=C(C)C)c4)c(=O)oc3c2C)OC1(C)C: False
CC(C)n1c(=O)n(C)c2cnc3cc(F)c(-c4ccc(OCCCN5CCCCC5)nc4)cc3c21 + Nc1ccc(C#CCN(C(=O)Cc2ncc(C(F)(F)F)cc2C(F)(F)F)c2ccc(F)cc2)nn1: False
CC1COCCN1c1cc(C2(O)CC3CCC(C2)O3)c2cnn(-c3ccn[nH]3)c2n1 (stereo unspecified) + Cc1cccc(N(C)C(=O)C2C(O)CCN2c2nc(C)cc(C(F)(F)F)c2C#N)c1: True
O=C(Nc1ccc(O)c(NS(=O)(=O)c2ccc(F)cc2)c1)c1ccc(-c2ccccc2)cc1 + Cc1cccc(N(C)C(=O)C2C(O)CCN2c2nc(C)cc(C(F)(F)F)c2C#N)c1: False
C#Cc1c(F)ccc2cc(O)cc(-c3ncc4c(N5CC6CCC(C5)N6)nc(OCC56CCCN5CC(F)C6)nc4c3F)c12 (stereo unspecified) + Nc1ccc(C#CCN(C(=O)Cc2ncc(C(F)(F)F)cc2C(F)(F)F)c2ccc(F)cc2)nn1: True
C#Cc1c(F)ccc2cc(O)cc(-c3ncc4c(N5CC6CCC(C5)N6)nc(OCC56CCCN5CC(F)C6)nc4c3F)c12 (stereo unspecified) + Cc1cccc(N(C)C(=O)C2C(O)CCN2c2nc(C)cc(C(F)(F)F)c2C#N)c1: True
